- system: T1, β2-Microglobulin (Homo sapiens, UniProt P61769)
- T1 construct: human β2-microglobulin; Amine-coupled to a CM5 chip (150 RU); also called antigen β2M; source: expressed and purified as previously described [27]
- T1 sequence (P61769 21-119): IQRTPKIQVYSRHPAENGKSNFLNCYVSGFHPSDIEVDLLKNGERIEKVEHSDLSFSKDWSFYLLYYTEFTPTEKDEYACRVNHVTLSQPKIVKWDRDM
- measurement protocol: SPR; Biacore T200; β2M immobilised on a CM5 chip to 150 RU; VHH samples after the modification procedure (NHS-Fluo:VHH 0, 1, 5 or 20; 2 h at 4 °C, ultrafiltration) in 2-fold serial dilution, 30 μL/min, HBS-EP+, 25 °C; 1:1 model with drift and RI2
- details: both partners purified
property label: kon (M⁻¹ s⁻¹)
Write the value in M⁻¹ s⁻¹ as a bare number.

Consider the following illustrative entries.
{"columns": ["binder", "kon (M⁻¹ s⁻¹)"],
 "data": [
  ["NB-2 modified with 1 time of NHS-Fluo (VHH, as the VHH domain of Dm6; flexible (G4S)4 linker between the VHH domain and the His6 tag, written out from '(G4S)4'; A mixture of isomers with different numbers and places of fluorescein; also called NB-2-1; source: E. coli SHuffle T7, purified (HisTrap HP), modified with NHS-Fluo, ultrafiltration) VHH: QVQLVESGGGLVQHGGSLRLSCAASGSAFSTYSMTWHRQAPGKGREWVAGVDRSNSDTNYADSVKGRFTIYRDNAQNTVYLRMNSLKPEDTAVYYCSAERLDGSVRREYWGQGTQVTVSS", 1600],
  ["NB-3 modified with 1 time of NHS-Fluo (VHH, as the VHH domain of Dm10; flexible (G4S)4 linker between the VHH domain and the His6 tag, written out from '(G4S)4'; A mixture of isomers with different numbers and places of fluorescein; also called NB-3-1; source: E. coli SHuffle T7, purified (HisTrap HP), modified with NHS-Fluo, ultrafiltration) VHH: QVQLVESGGGLVQPGGSLRLSCAASGFSLDYYAIGWFRQAPGKEREGVSCISSSDDSTYYAGSVKGRFKISRDNAKSTVYLQMNSLKPEDSAVYYCAALHSGNYYYTPSYICDAEMDYWGKGTLVTVSS", 849],
  ["NB-2 (VHH, VHH domain of NB-2; flexible (G4S)4 linker between the VHH domain and the His6 tag, written out from '(G4S)4'; VHH-(G4S)4-His6; Template of the homology model: PDB 5IML (GMQE 0.92). 'Origin' = no treatment; '0' = negative control; also called NB-2-Origin; NB-2-0; source: E. coli SHuffle T7, purified (HisTrap HP)) VHH: QVQLVESGGGLVQHGGSLRLSCAASGSAFSTYSMTWHRQAPGKGREWVAGVDRSNSDTNYADSVKGRFTIYRDNAQNTVYLRMNSLKPEDTAVYYCSAERLDGSVRREYWGQGTQVTVSS", 3540],
  ["NB-1 modified with 20 times of NHS-Fluo (VHH, as the VHH domain of Dm2; flexible (G4S)4 linker between the VHH domain and the His6 tag, written out from '(G4S)4'; also called NB-1-20; labeled NB-1; source: E. coli SHuffle T7, purified (HisTrap HP), modified with NHS-Fluo, ultrafiltration) VHH: QVQLVESGGGLVQAGGSLRLSCAASGSTLDSYYIGWFRQAPGKEREGVSCISSSGNSIRYVDSVKDRFTISRDNGKNTAYLHINSLRPEDTAVYYCAASRRGRKPGLPCSLVRERYAYWGQGTQVTVSS", 29000]
]}

Here is the next item to consider.
Requested field: kon. Item: NB-1 modified with 1 time of NHS-Fluo (VHH, as the VHH domain of Dm2; flexible (G4S)4 linker between the VHH domain and the His6 tag, written out from '(G4S)4'; A mixture of isomers with different numbers and places of fluorescein, unmodified VHH among them; also called NB-1-1; source: E. coli SHuffle T7, purified (HisTrap HP), modified with NHS-Fluo, ultrafiltration) VHH: QVQLVESGGGLVQAGGSLRLSCAASGSTLDSYYIGWFRQAPGKEREGVSCISSSGNSIRYVDSVKDRFTISRDNGKNTAYLHINSLRPEDTAVYYCAASRRGRKPGLPCSLVRERYAYWGQGTQVTVSS 43000
